I'd be grateful if you could share measured TGI for these entries.
- Tested on: U251 CNS
- EXPERIMENT_SUMMARY: NCI tumour cell line growth inhibition, 48 h

# count of solved cases: 2
INSERT INTO results (compound, result_type, result) VALUES
  ('CC1(C)CC2(S(=O)(=O)c3ccccc3)ON1CC2S(=O)(=O)c1ccccc1 (stereo not given)', 'TGI', '> 100 µM'),
  ('C/C1=C/C2OC(=O)C3(C)C2C(CC2(C)OC1=CC2=O)OC3(O)C(C)C (stereo not given)', 'TGI', '> 54 µM');

Provide reported TGI for each item, in the same order as listed.
1. O=c1c2ccccc2sc2nc(CCl)nn12
2. NCc1ccc(O)c(O)c1
3. COc1ccc(COC(=O)NNC(=O)C2CSC(c3ccccc3)N2C(C)=O)cc1 (stereo not given)
4. O=C(/C=C/c1ccc(OCc2ccccc2)c(OCc2ccccc2)c1)OCc1ccccc1
5. COC1CC(OC)C2OC(c3ccccc3)OCC2O1 (stereo not given)
6. CCOC(=O)C1(C(C)=O)OC(=O)c2cnccc21 (stereo not given)
7. O=S(=O)(Cc1nc2ccccc2s1)c1nc2ccccc2s1

> 100 µM
> 100 µM
> 100 µM
> 100 µM
> 100 µM
> 100 µM
34.9 µM

Provide reported TGI for each item, in the same order as listed.
1. Cc1c(C(=N)N)oc2ccccc12
2. COc1ccc(C(=O)/C=C/c2ccc(OCc3ccc(Cl)cc3)cc2)cc1OC
3. CC1=C2[C@H]3OC(=O)[C@@H](C)[C@@H]3CC[C@@]2(C)C=CC1=O

> 100 µM
314 µM
> 100 µM

Provide reported TGI for each item, in the same order as listed.
1. NC(=O)[C@@H](CCC(F)(F)F)N(Cc1ccc(-c2ncon2)cc1F)S(=O)(=O)c1ccc(Cl)cc1
2. CC(=O)CC1(O)C(=O)c2c(Br)sc(Br)c2C1=O
3. CCCCCCC/C(=N\N=C(N)N)c1ccc(O)cc1
4. Clc1ccc(Cl)c(N=Nc2cc3c4c(c2)CCCN4CCC3)c1
5. Cn1cc(-c2ccc(-c3cn(C)c4ncccc34)[nH]2)c2cccnc21

> 100 µM
53.5 µM
2.87 µM
> 10 µM
3.17 µM

* * *

- System: TK-10 renal
- EXPERIMENT_SUMMARY: NCI tumour cell line growth inhibition, 48 h
RESULT_TYPE: TGI

INSERT INTO measurements (compound, assayed_system, result) VALUES
  ('O=c1c2ccccc2sc2nc(CCl)nn12', 'TK-10 renal', '25.4 µM'),
  ('Nc1nc(Cl)c(/C=N\O)c(NCC2(CO)CC(=O)C2)n1', 'TK-10 renal', '> 100 µM'),
  ('C[n+]1cn(-c2ccc([N+](=O)[O-])cn2)c2ccccc21', 'TK-10 renal', '> 100 µM'),
  ('C=CCCC(CCC=C)(C(=O)O)C(=O)O', 'TK-10 renal', '> 100 µM'),
  ('Cc1cc(Br)ccc1NC1=CC(=O)C(=O)c2ccccc21', 'TK-10 renal', '> 100 µM'),
  ('COC(=O)/C(C#N)=C1\CCC(Nc2cccc(C(F)(F)F)c2)N1C (configuration not stated)', 'TK-10 renal', '> 100 µM');

Provide reported TGI for each item, in the same order as listed.
1. O=S(=O)(Cc1nc2ccccc2s1)c1nc2ccccc2s1
2. COc1ccc2nc(NC(=O)COc3cc(/C=C\c4cc(OC)c(OC)c(OC)c4)ccc3OC)sc2c1

["35.7 µM", "> 100 µM"]

Provide reported TGI for each item, in the same order as listed.
1. N#Cc1ccccc1C#C/C=C\C#Cc1cccs1
2. O=[N+]([O-])c1ccc(/C(=C\c2ccccc2)Cn2ccnc2)cc1
3. Cc1ccc2c3c4c(ccc13)C(C)(C)OC4=C(C(C)C)C2=O

1: 62.5 µM; 2: > 100 µM; 3: > 100 µM

Provide reported TGI for each item, in the same order as listed.
1. CC(C)(C)c1cc(C(C)(C)C)c2c(c1O)OC(=O)CS2
2. CC(C)(C)c1ccc(-n2c3nc(=O)n(-c4ccccc4C(F)(F)F)c(=O)c-3cc3ccccc32)cc1
3. CCCCCCCCCCCCCCNc1nc(C(=O)OCC)ncc1-c1ccc(C(F)(F)F)cc1
4. Oc1cccc2cc(Cl)cnc12
5. COC(=O)[C@H](Cc1c[nH]c2ccccc12)NC(=O)OCC1OC(n2cc(C)c(=O)[nH]c2=O)CC1N=[N+]=[N-] (some centres not stated)
6. COC(=O)c1ccc([C@H]2c3[nH]c4ccccc4c3C[C@H](C(=O)OC)N2C(=O)CCl)cc1

1. 21.7 µM
2. > 100 µM
3. > 100 µM
4. > 100 µM
5. > 100 µM
6. 7.66 µM

* * *

I'd be grateful if you could share measured TGI for these entries.
- System: SNB-19 CNS
- EXPERIMENT_SUMMARY: NCI tumour cell line growth inhibition, 48 h

# count of solved cases: 3
INSERT INTO measurements (compound, result_type, result) VALUES
  ('O=C1N=C(c2c(-c3[nH]c(=O)c4ccc(Br)cc4c3O)c(O)c3ccccc3c2O)C(=O)c2cc(Br)ccc21', 'TGI', '> 16.7 µM'),
  ('COC(=O)c1c(C(=O)OC)c2ccc(-c3ccc(Cl)cc3)nn2c1C(=O)c1ccc([N+](=O)[O-])cc1', 'TGI', '> 100 µM'),
  ('CC[C@H](CC[C@@H](C)[C@H]1CC[C@H]2[C@@H]3CC=C4C[C@@H](O)CC[C@]4(C)[C@H]3CC[C@]12C)C(C)C', 'TGI', '> 100 µM');

Provide reported TGI for each item, in the same order as listed.
1. O=C1c2ccccc2C2(O)Nc3c(ccc4ccccc34)C12O (stereo not drawn)
2. COC(O)C(=O)c1c2c(cc3c1CCC3)CCCC2 (stereo not drawn)
3. COC1OC(C)C(OC(=O)C(C)(C)C)C(OS(=O)(=O)c2ccc(C)cc2)C1OS(=O)(=O)c1ccc(C)cc1 (stereo not drawn)
4. COc1cc(C2c3cc4c(cc3[C@@H](NCCCN3CCCC3=O)C3COC(=O)[C@H]23)OCO4)cc(OC)c1O (stereo partly drawn)
5. N=C(c1ccc(-c2cn3cc(C(=N)N4CCCC4)ccc3n2)cc1)N1CCCC1

1. > 100 µM
2. 32.8 µM
3. > 100 µM
4. > 100 µM
5. > 100 µM

* * *

- Test system: U251 CNS
- EXPERIMENT_SUMMARY: NCI tumour cell line growth inhibition, 48 h
RESULT_TYPE: TGI

INSERT INTO assay_data (molecule, result) VALUES
  ('C[Si](C)(C)CC(N)=O', '> 100 µM'),
  ('C=CCNC(=O)NNC(O)(C(=O)OCC)C(F)(F)F (stereo not drawn)', '> 100 µM');

Turning now to a further record.
What does the record list as TGI for `CC(C)(C)c1ccc(-n2c3nc(=O)n(-c4ccccc4C(F)(F)F)c(=O)c-3cc3ccccc32)cc1` ?
29.6 µM
